# target.system: SARS-CoV-2 3CLpro (Severe acute respiratory syndrome coronavirus 2)
# protocol.notes: biochemical
# Format: biochemical
# condition.parameters: 4 h, sheet LOPAC_screen_w_protease; LOPAC1280 at 5 µM; replicate 1; read-out: Replicate_1
Where a name gives a salt, the structure may show the parent alone.
endpoint: inhibition at 5 µM (%)
State the answer as a number, implicitly in %.

| molecule | target.system | endpoint | experimental.value |
| --- | --- | --- | --- |
| COc1ccccc1OCC(O)CN1CCN(CC(=O)Nc2c(C)cccc2C)CC1 (centres unmarked) [Ranolazine dihydrochloride] | SARS-CoV-2 3CLpro (Severe acute respiratory syndrome coronavirus 2) | inhibition at 5 µM | 1.18 |
| C[N+](C)(C)CCOC(=O)CCC(=O)OCC[N+](C)(C)C [Succinylcholine chloride] | SARS-CoV-2 3CLpro (Severe acute respiratory syndrome coronavirus 2) | inhibition at 5 µM | 1.05 |

Query: So what's the measured inhibition at 5 µM for this one? Nc1ccn([C@H]2CC[C@@H](CO)O2)c(=O)n1
Reply: 1.73

Query: So what's the measured inhibition at 5 µM for this one? C[C@]12CCC(=O)C=C1CC[C@@H]1[C@@H]2[C@@H](O)C[C@@]2(C)[C@H]1CC[C@]2(O)C(=O)CO [Hydrocortisone]
Reply: 2.23

Query: So what's the measured inhibition at 5 µM for this one? Cc1oncc1C(=O)Nc1ccc(C(F)(F)F)cc1 [Leflunomide]
Reply: 0.0888

Query: So what's the measured inhibition at 5 µM for this one? NC(=O)c1cccc(N)c1 [3-aminobenzamide]
Reply: 1.05

Query: So what's the measured inhibition at 5 µM for this one? CCN(c1nc(N)c(C(=O)NC(=N)N)nc1Cl)C(C)C [5-(N-Ethyl-N-isopropyl)amiloride]
Reply: 1.63

Query: So what's the measured inhibition at 5 µM for this one? CC(C)(C)NCC(O)c1ccccc1Cl (centres unmarked) [Tulobuterol hydrochloride]
Reply: 2.46

Query: So what's the measured inhibition at 5 µM for this one? Cc1ccc(C(=O)Nc2ccc(S(=O)(=O)O)c3cc(S(=O)(=O)O)cc(S(=O)(=O)O)c23)cc1NC(=O)c1cccc(NC(=O)Nc2cccc(C(=O)Nc3cc(C(=O)Nc4ccc(S(=O)(=O)O)c5cc(S(=O)(=O)O)cc(S(=O)(=O)O)c45)ccc3C)c2)c1 [Suramin hexasodium]
Reply: 2.66

Query: So what's the measured inhibition at 5 µM for this one? CN(C)CCCO[C@@H]1[C@H]2OC(C)(C)O[C@H]2O[C@@H]1[C@H](O)CO [Amiprilose hydrochloride]
Reply: 1.63

Query: So what's the measured inhibition at 5 µM for this one? CC(C)(C)NCC(O)c1ccc(O)c(CO)c1 (centres unmarked)
Reply: 1.09

Query: So what's the measured inhibition at 5 µM for this one? O=C1NC(=O)C(c2ccccc2)(c2ccccc2)N1
Reply: 1.83

Query: So what's the measured inhibition at 5 µM for this one? NS(=O)(=O)c1cc2c(cc1Cl)N=CNS2(=O)=O [Chlorothiazide]
Reply: 1.61

Query: So what's the measured inhibition at 5 µM for this one? NCCCCN=C(N)N [Agmatine sulfate]
Reply: 0.743

Query: So what's the measured inhibition at 5 µM for this one? O=C(NCC1CCCCN1)c1cc(OCC(F)(F)F)ccc1OCC(F)(F)F (centres unmarked) [Flecainide acetate]
Reply: 2.84

Query: So what's the measured inhibition at 5 µM for this one? C[N+](C)(C)CC(=O)O [Betaine hydrochloride]
Reply: 0.144

Query: So what's the measured inhibition at 5 µM for this one? CN(C)CCCC1(c2ccc(F)cc2)OCc2cc(C#N)ccc21 (centres unmarked) [Citalopram hydrobromide]
Reply: 1.98

====

# target.system: SARS-CoV-2 3CLpro (Severe acute respiratory syndrome coronavirus 2, UniProt P0DTD1)
# protocol.notes: biochemical
# Assay type: biochemical
# Parameters: unit not given here
# condition.parameters: LOPAC1280 primary screen with protease, 5 µM compound, mean of two replicates
Where a name gives a salt, the structure may show the parent alone.
endpoint: mean (LOPAC_screen_w_protease)
Respond using a number only.

Some entries whose results are on file:
| compound | endpoint | experimental.value |
| --- | --- | --- |
| Cl.Cl.NCCC(=O)NCCc1c[nH]cn1 [Carcinine dihydrochloride] | mean (LOPAC_screen_w_protease) | 1.47 |
| COc1ccc(CC(C)NCC(O)c2ccc(O)c(NC=O)c2)cc1 (stereo not drawn) [Formoterol] | mean (LOPAC_screen_w_protease) | 1.3452 |
| CN(C)c1nc(N)c(C(=O)NC(=N)N)nc1Cl [5-(N,N-Dimethyl)amiloride hydrochloride] | mean (LOPAC_screen_w_protease) | 1.502 |
| CCN(CC)CCOC(=O)c1ccc(N)cc1 [Procaine hydrochloride] | mean (LOPAC_screen_w_protease) | 1.433 |
| CC1(C)C(=O)N(CCN2CCC(C(=O)c3ccc(F)cc3)CC2)c2ccccc21.Cl [LY-310,762 hydrochloride] | mean (LOPAC_screen_w_protease) | 1.717 |
| N[C@@H]1CON=C1O [D-Cycloserine] | mean (LOPAC_screen_w_protease) | 1.34 |
| N[C@@H](CS(=O)O)C(=O)O [L-Cysteinesulfinic Acid] | mean (LOPAC_screen_w_protease) | 1.669 |
| Nc1nc2ccc(OC(F)(F)F)cc2s1 [Riluzole] | mean (LOPAC_screen_w_protease) | 1.558 |

Now for a further compound.
Query: So what's the measured mean (LOPAC_screen_w_protease) for this one? CCCN(CCC)[C@@H]1CCc2c(F)ccc(O)c2C1.Cl [R(+)-UH-301 hydrochloride]
Reply: 1.335

====

# target.system: SARS-CoV-2 3CLpro (Severe acute respiratory syndrome coronavirus 2)
# protocol.notes: biochemical
# Format: biochemical
# condition.parameters: 4 h, read-out: Replicate_2 (LOPAC screen with protease)
Structures can show the parent of a compound that is named as a salt.
# maps each entry to its inhibition at 5 µM
State the answer as a number, implicitly in %.

Some entries whose results are on file:
| compound | target.system | inhibition at 5 µM [%] |
| --- | --- | --- |
| Cc1cnc(C(=O)NCCc2ccc(S(=O)(=O)NC(=O)NC3CCCCC3)cc2)cn1 [Glipizide] | SARS-CoV-2 3CLpro (Severe acute respiratory syndrome coronavirus 2) | 3.17 |
| CC(C)COCC(CN(Cc1ccccc1)c1ccccc1)N1CCCC1 (stereo not drawn) [Bepridil hydrochloride] | SARS-CoV-2 3CLpro (Severe acute respiratory syndrome coronavirus 2) | 7.08 |
| N[C@@H](C(=O)N[C@@H]1C(=O)N2C(C(=O)O)=C(Cl)CS[C@H]12)c1ccccc1 | SARS-CoV-2 3CLpro (Severe acute respiratory syndrome coronavirus 2) | 11.6 |

Query: So what's the measured inhibition at 5 µM for this one? Oc1ccc(C2CNCCc3c2cc(O)c(O)c3Cl)cc1 (stereo not drawn) [Fenoldopam bromide]
Reply: 23

Query: So what's the measured inhibition at 5 µM for this one? O=c1cc(O)cc(/C=C/c2ccc(O)c(O)c2)o1 [Hispidin, reference compound]
Reply: 38.9

Query: So what's the measured inhibition at 5 µM for this one? O=C(CCc1ccc(O)cc1)c1c(O)cc(O)cc1O
Reply: 5.55

====

# target.system: SARS-CoV-2 3CLpro (Severe acute respiratory syndrome coronavirus 2)
# protocol.notes: biochemical
# Assay type: biochemical
# condition.parameters: 4 h, sheet LOPAC_screen_w_protease; primary screen with protease, 5 µM; replicate 2; read-out: Replicate_2
Structures can show the parent of a compound that is named as a salt.
endpoint: inhibition at 5 µM (%)
State the answer as a number, implicitly in %.

Some entries whose results are on file:
| compound | experimental.value |
| --- | --- |
| CCCN1C[C@H](CSC)C[C@@H]2c3cccc4[nH]cc(c34)C[C@H]21 [Pergolide methanesulfonate] | 0.454 |
| Nc1ccncc1 [4-Aminopyridine] | -0.771 |
| N=C(N)c1ccc(N)cc1 [4-Aminobenzamidine dihydrochloride] | -1.98 |

Query: So what's the measured inhibition at 5 µM for this one? COc1ccc(C2CNC(=O)C2)cc1OC1CCCC1 (centres unmarked) [Rolipram]
Reply: -1.14

Query: So what's the measured inhibition at 5 µM for this one? Nc1ccc(S(=O)(=O)Nc2ccnn2-c2ccccc2)cc1 [Sulfaphenazole]
Reply: -0.107

====

# target.system: SARS-CoV-2 3CLpro (Severe acute respiratory syndrome coronavirus 2, UniProt P0DTD1)
# protocol.notes: biochemical
# Type: biochemical
# Parameters: unit not given here
# condition.parameters: sheet LOPAC_screen_w_protease; primary screen of LOPAC1280 at 5 µM with protease; replicate 2
Param threshold (3) applies to Replicate_2; output fulfilled when value >= threshold, not fulfilled when value < threshold.

Worked set:
| molecule | label |
| --- | --- |
| Cn1cnc2c(NC3CCCC3)ncnc21 [N6-Cyclopentyl-9-methyladenine] | fulfilled |
| C[N+](C)(C)CC#CCOC(=O)Nc1cccc(Cl)c1.[Cl-] [McN-A-343] | fulfilled |

Query: hey, is Replicate_2 for this one >= 3? CC[C@@]1(O)C(=O)OCc2c1cc1n(c2=O)Cc2cc3ccccc3nc2-1 [(S)-(+)-Camptothecin]
Reply: not fulfilled
